- experiment.description: Cytotoxicity against human CNE2 cells after 3 days by MTT assay
- Format: functional, cell-based
- test.context: CNE-2, 72 h
Record form. Attribute: IC50. Fill in for each entry.
Express your answer in µM, writing the number without its unit.

I have this compound here, O=c1[nH]cc(F)c(=O)[nH]1 [FLUOROURACIL] , and I need its recorded IC50. 13.1

Which IC50 value belongs to `Cc1cc(C)nc(Oc2ccc(NC(=O)Nc3ccc(Cl)cc3Cl)cc2)n1` ? 38.9

Please give the measured IC50 for this compound: `Cc1cc(C)nc(Oc2ccc(NC(=O)Nc3ccc(F)cc3)cc2)n1` 46.9

====

- experiment.description: Cytotoxicity against human CNE2 cells after 3 days by MTT assay
- Assay type: functional, cell-based
- test.context: CNE-2, 72 h
Kindly state IC50 for each of the entries shown.

Recorded IC50 of `COc1ccc(NC(=O)Nc2ccc(Cl)cc2Cl)cc1` , please. > 50 µM

Given the compound `COc1ccc(NC(=O)Nc2ccc(Cl)cc2)cc1` , what is its reported IC50? > 50 µM

Looking for the measured IC50 of `Cc1cccc(NC(=O)Nc2ccc(Sc3nc(C)cc(C)n3)cc2)c1` , can you help? > 50 µM
